- Test system: Acinetobacter baumanii T6474
- test method notes: Bacterial growth minimal inhibitory concentration (microdilution, cation-adjusted Mueller-Hinton Broth)
- Format: cell-based
- test conditions: Acinetobacter baumannii, multiply-resistant strain (in particular quinolone-resistant)
test readout: MIC (µg/mL)

Completed entries (count: 6):
given smiles | value observed
CCOc1ccc(-n2nc(CCCN[C@H]3Cn4c(=O)cnc5ccc(F)c3c54)oc2=O)cc1 | 8
CCCc1ccc(-n2nc(CCCN[C@@H]3Cn4c(=O)cnc5ccc(F)c3c54)oc2=O)cc1 | 4
COc1ccc2ccc(=O)n3c2c1[C@H](NCCCc1nn(-c2ccc4c(n2)NC(=O)CO4)c(=O)o1)C3 | 1
CCOc1ccc(-n2nc(CCCN[C@@H]3Cn4c(=O)cnc5ccc(F)c3c54)oc2=O)cc1 | 4
O=C1COc2ccc(-n3nc(CCCN[C@H]4Cn5c(=O)ccc6ccc(F)c4c65)oc3=O)nc2N1 | 1
O=c1oc(CCCN[C@@H]2Cn3c(=O)ccc4ccc(F)c2c43)nn1-c1ccc2c(c1)OCCO2 | 8

a. O=C1COc2ccc(-n3nc(CCCN[C@@H]4Cn5c(=O)ccc6cccc4c65)oc3=O)nc2N1
b. O=C1CSc2ccc(-n3nc(CCCN[C@H]4Cn5c(=O)cnc6ccc(F)c4c65)oc3=O)nc2N1
Exercise: Hi team, can someone confirm which has the larger MIC: a or b ? Thanks. Please identify the chosen entry by its label.
Key: a
(a: 4 µg/mL, b: 0.25 µg/mL)

* * *

- Test system: Acinetobacter baumanii T6474
- test method notes: Bacterial growth minimal inhibitory concentration (microdilution, cation-adjusted Mueller-Hinton Broth)
- Assay type: cell-based
- test conditions: Acinetobacter baumannii, multiply-resistant strain (in particular quinolone-resistant)
test readout: MIC (µg/mL)

given smiles | MIC / µg/mL
O=C1CSc2ccc(-n3nc(CCCN[C@@H]4Cn5c(=O)cnc6ccc(F)c4c65)oc3=O)nc2N1 | 0.25
CCOc1ccc(-n2nc(CCCN[C@H]3Cn4c(=O)ccc5ccc(F)c3c54)oc2=O)cc1 | 4
O=c1oc(CCCN[C@@H]2Cn3c(=O)cnc4ccc(F)c2c43)nn1-c1ccc2c(c1)OCCO2 | 4
O=C1COc2ccc(-n3nc(CCCN[C@H]4Cn5c(=O)ccc6ncc(F)c4c65)oc3=O)nc2N1 | 2

I. O=C1COc2ccc(-n3nc(CCCN[C@H]4Cn5c(=O)cnc6ccc(F)c4c65)oc3=O)nc2N1
II. CCOc1ccc(-n2nc(CCCN[C@@H]3Cn4c(=O)ccc5ccc(F)c3c54)oc2=O)cc1
III. CCSc1ccc(-n2nc(CCCN[C@@H]3Cn4c(=O)ccc5ccc(F)c3c54)oc2=O)cc1
IV. O=C1COc2ccc(-n3nc(CCCN[C@@H]4Cn5c(=O)cnc6ccc(F)c4c65)oc3=O)cc2N1
Exercise: Thanks in advance: please rank these 4 entries by MIC, highest to lowest. Please list the labels according to the requested order.
Key: III, II, I, IV
(III: 8 µg/mL, II: 4 µg/mL, I: 2 µg/mL, IV: 0.25 µg/mL)

* * *

- Test system: Staphylococcus aureus ATCC29213
- test method notes: Bacterial growth minimal inhibitory concentration (microdilution, cation-adjusted Mueller-Hinton Broth)
- Type: cell-based
- test conditions: methicillin-sensitive and quinolone-sensitive strain, read-out: MIC for S. aureus ATCC29213
test readout: MIC (µg/mL)

given smiles | MIC / µg/mL
O=C1CSc2ccc(-n3nc(CCCN[C@@H]4Cn5c(=O)cnc6ccc(F)c4c65)oc3=O)nc2N1 | 0.031
O=C1CSc2ccc(-n3nc(CCCN[C@@H]4Cn5c(=O)ccc6ccc(F)c4c65)oc3=O)nc2N1 | 0.031
